Tested on: HCT116 cells
Assay: Lactate dehydrogenase (LDH) release assay
Assay type: cell-based
Positions of bridges follow the written chain, without caps; N, C: chain ends. Non-standard residues stand in square brackets, D forms with d. Residues, ends and D or L forms follow the SMILES beside them. Lys(N3) = [N-]=[N+]=NCCCC[C@H](N)C(=O)O; R8 = C=CCCCCCC[C@@](C)(N)C(=O)O; Cba = N[C@@H](CC1CCC1)C(=O)O; S5 = C=CCCC[C@](C)(N)C(=O)O; Aib = CC(C)(N)C(=O)O; βAla = NCCC(=O)O
ENDPOINT_LABEL: LDH: Cytotoxicity assay: % Effect (%)
Give a bare numeral; the unit % is implied.

Below, each entry is followed by its recorded LDH: Cytotoxicity assay: % Effect result.
COMPOUND | ENDPOINT_LABEL | TEST_VALUE
CC(=O)N[C@@H](CCCCN=[N+]=[N-])C(=O)N[C@@H](CO)C(=O)NCC(=O)N[C@@H](CO)C(=O)N[C@@H](CC(C)C)C(=O)N[C@H](C(=O)N[C@@H](Cc1ccccc1)C(=O)N[C@]1(C)CCCCCCC=CCCC[C@@](C)(C(=O)N[C@@H](CO)C(=O)N[C@@H](C)C(=O)N[C@@H](C)C(N)=O)NC(=O)[C@H](CC2CCC2)NC(=O)[C@H](CCC(N)=O)NC(=O)[C@H](C)NC(=O)[C@H](Cc2c[nH]c3ccccc23)NC(=O)[C@H](Cc2ccc(O)cc2)NC(=O)[C@H](CCC(=O)O)NC1=O)[C@@H](C)O [MP-619] | LDH: Cytotoxicity assay: % Effect | 11.42
CC(=O)N[C@@H](CCCCN=[N+]=[N-])C(=O)NCCC(=O)N[C@@H](CC(C)C)C(=O)N[C@H](C(=O)N[C@@H](Cc1ccccc1)C(=O)N[C@]1(C)CCCCCCC=CCCC[C@@](C)(C(=O)N2CCC[C@H]2C(=O)N[C@@H](C)C(=O)N[C@@H](C)C(N)=O)NC(=O)[C@H](CC2CCC2)NC(=O)[C@H](CCC(N)=O)NC(=O)[C@H](C)NC(=O)[C@H](Cc2c[nH]c3ccccc23)NC(=O)[C@H](Cc2ccc(O)cc2)NC(=O)[C@H](CCC(=O)O)NC1=O)[C@@H](C)O [MP-184] (Ac-[Lys(N3)][βAla]LTF[R8]EYWAQ[Cba][S5]PAA-NH2; staple 6-13) | LDH: Cytotoxicity assay: % Effect | 10.48
CC(=O)N[C@@H](CCCNC(=N)N)C(=O)N[C@@H](CCCNC(=N)N)C(=O)NCCCCCC(=O)N[C@@H](CC(C)C)C(=O)N[C@H](C(=O)N[C@@H](Cc1ccccc1)C(=O)N[C@]1(C)CCCCCCC=CCCC[C@@](C)(C(=O)N[C@@H](CO)C(=O)N[C@@H](C)C(=O)N[C@@H](C)C(N)=O)NC(=O)[C@H](CC2CCC2)NC(=O)[C@H](CCC(N)=O)NC(=O)[C@H](C)NC(=O)[C@H](Cc2c[nH]c3ccccc23)NC(=O)[C@H](Cc2ccc(O)cc2)NC(=O)[C@H](CCC(=O)O)NC1=O)[C@@H](C)O [MP-003] | LDH: Cytotoxicity assay: % Effect | 46.5

Field: LDH: Cytotoxicity assay: % Effect (HCT116 cells). Entry: CC(=O)N[C@@H](CCCNC(=N)N)C(=O)NCCC(=O)N[C@@H](CC(C)C)C(=O)N[C@H](C(=O)N[C@@H](Cc1ccccc1)C(=O)N[C@]1(C)CCCCCCC=CCCC[C@@](C)(C(=O)N[C@@H](CO)C(=O)N[C@@H](C)C(=O)N[C@@H](C)C(N)=O)NC(=O)[C@H](CC2CCC2)NC(=O)[C@H](CCC(N)=O)NC(=O)[C@H](C)NC(=O)[C@H](Cc2c[nH]c3ccccc23)NC(=O)[C@H](Cc2ccc(O)cc2)NC(=O)[C@H](CCC(=O)O)NC1=O)[C@@H](C)O [MP-000]
6.079

Field: LDH: Cytotoxicity assay: % Effect (HCT116 cells). Entry: CC(=O)N[C@@H](CCCCN=[N+]=[N-])C(=O)NCCC(=O)N[C@@H](CC(C)C)C(=O)N[C@H](C(=O)N[C@@H](CC1CCC1)C(=O)N[C@]1(C)CCCCCCC=CCCC[C@@](C)(C(=O)N[C@@H](CO)C(=O)N[C@@H](C)C(=O)N[C@@H](C)C(N)=O)NC(=O)[C@H](Cc2c[nH]c3ccccc23)NC(=O)[C@H](CCC(N)=O)NC(=O)[C@H](C)NC(=O)[C@H](Cc2ccccc2)NC(=O)[C@H](Cc2ccc(O)cc2)NC(=O)[C@H](CCC(=O)O)NC1=O)[C@@H](C)O [MP-791] (Ac-[Lys(N3)][βAla]LT[Cba][R8]EYFAQW[S5]SAA-NH2; staple 6-13)
45.16

Field: LDH: Cytotoxicity assay: % Effect (HCT116 cells). Entry: CC(=O)N[C@H](CC(C)C)C(=O)N[C@H](C(=O)N[C@@H](Cc1ccccc1)C(=O)N[C@]1(C)CCCCCCC=CCCC[C@@](C)(C(=O)N[C@@H](CO)C(=O)N[C@H](C)C(=O)N[C@@H](C)C(N)=O)NC(=O)[C@H](CC2CCC2)NC(=O)[C@H](CC(C)C)NC(=O)[C@H](CCC(N)=O)NC(=O)[C@H](Cc2c[nH]c3ccccc23)NC(=O)[C@H](Cc2ccc(O)cc2)NC(=O)[C@H](CCC(=O)O)NC1=O)[C@@H](C)O [MP-7201]
4.51

Field: LDH: Cytotoxicity assay: % Effect (HCT116 cells). Entry: CC(=O)N[C@@H](CCCCN=[N+]=[N-])C(=O)NCCC(=O)N[C@@H](CC(C)C)C(=O)N[C@H](C(=O)N[C@@H](CO)C(=O)N[C@]1(C)CCCCCCC=CCCC[C@@](C)(C(=O)N[C@@H](CO)C(=O)N[C@@H](C)C(=O)N[C@@H](C)C(N)=O)NC(=O)[C@H](CO)NC(=O)[C@H](CCC(N)=O)NC(=O)[C@H](C)NC(=O)[C@H](CO)NC(=O)[C@H](Cc2ccc(O)cc2)NC(=O)[C@H](CCC(=O)O)NC1=O)[C@@H](C)O [MP-3352] (Ac-[Lys(N3)][βAla]LTS[R8]EYSAQS[S5]SAA-NH2; staple 6-13)
-2.39

Field: LDH: Cytotoxicity assay: % Effect (HCT116 cells). Entry: CC(=O)N[C@@H](CC(C)C)C(=O)N[C@H](C(=O)N[C@@H](Cc1ccccc1)C(=O)NC(C)(C)C(=O)N[C@@H](CCC(=O)O)C(=O)N[C@@H](Cc1ccc(O)cc1)C(=O)N[C@@H](Cc1c[nH]c2ccccc12)C(=O)N[C@@H](C)C(=O)N[C@@H](CCC(N)=O)C(=O)N[C@@H](CC(C)C)C(=O)NC(C)(C)C(=O)N[C@@H](CO)C(N)=O)[C@@H](C)O [MP-790] (Ac-LTF[Aib]EYWAQL[Aib]S-NH2)
-1.73

Field: LDH: Cytotoxicity assay: % Effect (HCT116 cells). Entry: CC(C)C[C@@H]1NC(=O)[C@H](C)NC(=O)[C@H](Cc2c[nH]c3ccccc23)NC(=O)[C@H](Cc2ccc(O)cc2)NC(=O)[C@H](CCC(=O)O)NC(=O)[C@](C)(NC(=O)[C@H](Cc2ccccc2)NC(=O)[C@H](CO)NC(=O)[C@@H](NC(=O)[C@H](CO)NC(=O)[C@@H](N)CCCCN=[N+]=[N-])[C@@H](C)O)CCCCCCC=CCCC[C@@](C)(C(N)=O)NC(=O)[C@H](CC(C)C)NC1=O [MP-0178]
0.79

---

Assay: Solubility assay (kinetic solubility, PBS pH 7)
Type: physicochemical
Conditions: pH 7, aqueous buffer, kinetic from dmso stock, pH 7, PBS; read-out: Solubility
Positions of bridges follow the written chain, without caps; N, C: chain ends. Non-standard residues stand in square brackets, D forms with d. Residues, ends and D or L forms follow the SMILES beside them. Lys(N3) = [N-]=[N+]=NCCCC[C@H](N)C(=O)O; R8 = C=CCCCCCC[C@@](C)(N)C(=O)O; Cba = N[C@@H](CC1CCC1)C(=O)O; S5 = C=CCCC[C@](C)(N)C(=O)O; βAla = NCCC(=O)O
ENDPOINT_LABEL: solubility kinetic (µM)
Give a bare numeral; the unit µM is implied.

MOLECULE | MEASUREMENT_UNITS | solubility kinetic
CC(=O)N[C@@H](CCCCN=[N+]=[N-])C(=O)NCCC(=O)NCC(=O)N[C@H](C(=O)N[C@@H](Cc1ccccc1)C(=O)N[C@]1(C)CCCCCCC=CCCC[C@@](C)(C(=O)N[C@@H](CO)C(=O)N[C@@H](C)C(=O)N[C@@H](C)C(N)=O)NC(=O)[C@H](CC2CCC2)NC(=O)[C@H](CCC(N)=O)NC(=O)[C@H](C)NC(=O)[C@H](Cc2c[nH]c3ccccc23)NC(=O)[C@H](Cc2ccc(O)cc2)NC(=O)[C@H](CCC(=O)O)NC1=O)[C@@H](C)O [MP-261] (Ac-[Lys(N3)][βAla]GTF[R8]EYWAQ[Cba][S5]SAA-NH2; staple 6-13) | µM | 89

Then this molecule:
Data request, read-out solubility kinetic, for CC(=O)N[C@@H](CC(C)C)C(=O)N[C@H](C(=O)N[C@@H](Cc1ccccc1)C(=O)N[C@]1(C)CCCCCCC=CCCC[C@@](C)(C(=O)N[C@@H](CO)C(=O)N[C@@H](C)C(=O)N[C@@H](C)C(N)=O)NC(=O)[C@H](CC2CCC2)NC(=O)[C@H](Cc2c[nH]cn2)NC(=O)[C@H](CCC(N)=O)NC(=O)[C@H](Cc2c[nH]c3ccccc23)NC(=O)[C@H](Cc2ccc(O)cc2)NC(=O)[C@H](CCC(=O)O)NC1=O)[C@@H](C)O [MP-200, ATSP-7041 (L9H)] (Ac-LTF[R8]EYWQH[Cba][S5]SAA-NH2; staple 4-11)
94.5
